Measured values drawn from patent USRE48267E1 for this set.

This listing pairs binders with measured cGMP response rel. to 1 uM CNP22; 10 nM peptide, NIH3T3 cells.
Measurement target: T1, NPR-B (natriuretic peptide receptor B), murine, expressed endogenously on NIH3T3 cells (murine, UniProt Q6VVW5 17-1047)
T1 sequence (looked up): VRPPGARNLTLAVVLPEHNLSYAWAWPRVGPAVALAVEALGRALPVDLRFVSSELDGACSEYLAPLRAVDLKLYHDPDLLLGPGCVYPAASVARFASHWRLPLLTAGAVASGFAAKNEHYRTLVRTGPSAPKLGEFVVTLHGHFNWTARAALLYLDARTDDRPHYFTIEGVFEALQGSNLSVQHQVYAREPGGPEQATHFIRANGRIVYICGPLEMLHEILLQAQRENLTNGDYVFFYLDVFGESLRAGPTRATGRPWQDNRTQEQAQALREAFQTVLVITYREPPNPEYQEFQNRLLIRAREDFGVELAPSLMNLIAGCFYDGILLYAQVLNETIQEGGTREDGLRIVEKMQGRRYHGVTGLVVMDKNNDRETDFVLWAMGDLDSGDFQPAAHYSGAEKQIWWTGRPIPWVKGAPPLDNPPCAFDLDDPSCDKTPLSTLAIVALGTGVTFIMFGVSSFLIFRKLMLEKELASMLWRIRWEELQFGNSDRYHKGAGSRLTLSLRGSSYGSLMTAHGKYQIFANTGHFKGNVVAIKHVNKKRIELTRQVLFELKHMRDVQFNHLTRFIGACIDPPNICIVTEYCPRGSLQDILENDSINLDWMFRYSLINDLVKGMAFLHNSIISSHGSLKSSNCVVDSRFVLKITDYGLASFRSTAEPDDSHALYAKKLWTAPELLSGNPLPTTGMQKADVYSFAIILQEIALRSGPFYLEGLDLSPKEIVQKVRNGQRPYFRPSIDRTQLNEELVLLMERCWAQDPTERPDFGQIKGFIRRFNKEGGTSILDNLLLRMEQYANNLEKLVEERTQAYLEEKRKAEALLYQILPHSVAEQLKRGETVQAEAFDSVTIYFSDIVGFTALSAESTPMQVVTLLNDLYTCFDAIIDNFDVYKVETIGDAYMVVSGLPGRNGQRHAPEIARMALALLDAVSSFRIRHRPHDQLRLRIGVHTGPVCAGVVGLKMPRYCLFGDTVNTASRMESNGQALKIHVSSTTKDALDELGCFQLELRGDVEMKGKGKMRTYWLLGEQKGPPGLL
Procedure summary: cell-based or functional assay
Where no end group is shown, it is not given here.
Outcome measure: cGMP response rel. to 1 uM CNP22; 10 nM peptide, NIH3T3 cells

Binder | Experimental result
GLSRGCFGLRLDRIGSMSGLGC (ends and bridges not checked; also: dimer joined N-terminus to N-terminus by disuccinimidyl glutarate) [CNP22, K4R, K10R, N-term.--N-term. dimer/disuccinimidyl glutarate] | 19 rel. to 1 uM CNP22 (100)
GQEHPNARKYKGANPKGLSKGCFGLKLDRIGSMSGLGC (ends and bridges not checked; cysteine pairing not given here) [GQEHPNARKYKGANPK-CNP22 (modified CNP37)] | 19 rel. to 1 uM CNP22 (100)
GAHHPHEHDTHGANQQGLSKGCFGLKLDRIGSMSGLGC [GAHHPHEHDTHGANQQ-CNP22 (HRGP fragment)] | 14 rel. to 1 uM CNP22 (100)
AAWARLLQEHPNARGLSKGCFGLKLDRIGSMSGLGC (ends and bridges not checked; cysteine pairing not given here) [AAWARLLQEHPNAR-CNP22] | 36 rel. to 1 uM CNP22 (100)
GQPREPQVYTGANQQGLSRGCFGLKLDRIGSMSGLGC [GQPREPQVYTGANQQ-CNP22, K4R (IgG1(Fc) fragment)] | 2 rel. to 1 uM CNP22 (100)
GQEHPNARKYKGANQKGLSKGCFGLKLDRIGSMSGLGC (ends and bridges not checked; cysteine pairing not given here) [GQEHPNARKYKGANQK-CNP22 (modified CNP37)] | 60 rel. to 1 uM CNP22 (100)
GHKSEVAHRFKGANKKGLSKGCFGLKLDRIGSMSGLGC [GHKSEVAHRFKGANKK-CNP22 (HSA-CNP27)] | 51 rel. to 1 uM CNP22 (100)
GQTHSSGTQSGANQQGLSRGCFGLKLDRIGSMSGLGC [GQTHSSGTQSGANQQ-CNP22, K4R (fibrinogen)] | 12 rel. to 1 uM CNP22 (100)
AAWARLLQEHPNAGLSKGCFGLKLDRIGSMSGLGC (ends and bridges not checked; cysteine pairing not given here) [AAWARLLQEHPNA-CNP22] | 24 rel. to 1 uM CNP22 (100)
GANPRGLSRGCFGLKLDRIGSMSGLGC [GANPR-CNP22, K4R] | 50 rel. to 1 uM CNP22 (100)
